Each recorded value in this set is attributed to paper PMC7004355.

Provide the reported kcat/Km of each item.
substrate: NCCC[C@H](N)C(=O)O; experiment: purified protein; settings: 50 mM Tris pH 8.5, 20 °C, 20 mM NaCl, carbamoyl phosphate 5 mM
Kindly answer with a numeric value in M⁻¹ s⁻¹, unit omitted.

INPUT: Which kcat/Km is listed for Escherichia coli ornithine transcarbamoylase (OTC) variant Y160S, His-tagged (enzyme, E. coli, Anabolic ornithine transcarbamoylase of E. coli, argI gene, 333-residue subunit; Made by site-directed mutagenesis of the ASKA pCA24N plasmid; 6x-His tag not cleaved; source: E. coli BL21 (DE3) Tuner, purified (HisTrap FF, Superdex 200 SEC)) SGFYHKHFLKLLDFTPAELNSLLQLAAKLKADKKSGKEEAKLTGKNIALIFEKDSTRTRCSFEVAAYDQGARVTYLGPSGSQIGHKESIKDTARVLGRMYDGIQYRGYGQEIVETLAEYASVPVWNGLTNEFHPTQLLADLLTMQEHLPGKAFNEMTLVSAGDARNNMGNSMLEAAALTGLDLRLVAPQACWPEAALVTECRALAQQNGGNITLTEDVAKGVEGADFIYTDVWVSMGEAKEKWAERIALLREYQVNSKMMQLTGNPEVKFLHCLPAFHDDQTTLGKKMAEEFGLHGGMEVTDEVFESAASIVFDQAENRMHTIKAVMVATLSK ?
OUTPUT: 61000

INPUT: Proceed to OTC (E. coli ornithine transcarbamoylase, argI) (Escherichia coli K-12; D141N) (protein, full length, uncleaved 6xHis tag, pCA24N ASKA clone, expressed in BL21(DE3) Tuner; homotrimer of 333-residue subunits) SGFYHKHFLKLLDFTPAELNSLLQLAAKLKADKKSGKEEAKLTGKNIALIFEKDSTRTRCSFEVAAYDQGARVTYLGPSGSQIGHKESIKDTARVLGRMYDGIQYRGYGQEIVETLAEYASVPVWNGLTNEFHPTQLLANLLTMQEHLPGKAFNEMTLVYAGDARNNMGNSMLEAAALTGLDLRLVAPQACWPEAALVTECRALAQQNGGNITLTEDVAKGVEGADFIYTDVWVSMGEAKEKWAERIALLREYQVNSKMMQLTGNPEVKFLHCLPAFHDDQTTLGKKMAEEFGLHGGMEVTDEVFESAASIVFDQAENRMHTIKAVMVATLSK
OUTPUT: 30000

INPUT: And OTC (E. coli ornithine transcarbamoylase, argI) (Escherichia coli K-12; E300Q) (protein, full length, uncleaved 6xHis tag, pCA24N ASKA clone, expressed in BL21(DE3) Tuner; homotrimer of 333-residue subunits) SGFYHKHFLKLLDFTPAELNSLLQLAAKLKADKKSGKEEAKLTGKNIALIFEKDSTRTRCSFEVAAYDQGARVTYLGPSGSQIGHKESIKDTARVLGRMYDGIQYRGYGQEIVETLAEYASVPVWNGLTNEFHPTQLLADLLTMQEHLPGKAFNEMTLVYAGDARNNMGNSMLEAAALTGLDLRLVAPQACWPEAALVTECRALAQQNGGNITLTEDVAKGVEGADFIYTDVWVSMGEAKEKWAERIALLREYQVNSKMMQLTGNPEVKFLHCLPAFHDDQTTLGKKMAEEFGLHGGMQVTDEVFESAASIVFDQAENRMHTIKAVMVATLSK ?
OUTPUT: 16000

INPUT: Same thing, different protein: OTC (E. coli ornithine transcarbamoylase, argI) (Escherichia coli K-12; R58A) (protein, full length, uncleaved 6xHis tag, pCA24N ASKA clone, expressed in BL21(DE3) Tuner; homotrimer of 333-residue subunits) SGFYHKHFLKLLDFTPAELNSLLQLAAKLKADKKSGKEEAKLTGKNIALIFEKDSTATRCSFEVAAYDQGARVTYLGPSGSQIGHKESIKDTARVLGRMYDGIQYRGYGQEIVETLAEYASVPVWNGLTNEFHPTQLLADLLTMQEHLPGKAFNEMTLVYAGDARNNMGNSMLEAAALTGLDLRLVAPQACWPEAALVTECRALAQQNGGNITLTEDVAKGVEGADFIYTDVWVSMGEAKEKWAERIALLREYQVNSKMMQLTGNPEVKFLHCLPAFHDDQTTLGKKMAEEFGLHGGMEVTDEVFESAASIVFDQAENRMHTIKAVMVATLSK
OUTPUT: 19000
